- subject.of.test: DNA polymerase III PolC-type (Bacillus subtilis (strain 168))
- procedure.text: qHTS Validation Assay for the Inhibitors of DNA Replication in Gram-Positive Bacteria (AID 485295);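 note: reconstituted holoenzyme with PolC plus beta clamp SSB and primase; PicoGreen fluorescence of double-stranded DNA made on primed circular M13 template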
- experimental.context: Gram-positive bacterial DNA replication assay; series mostly up to 57.1 µM
Calls of active or inactive are those of the source. Calls come from the whole dose curve; as a rule, active = well fitted inhibition curve with a large enough effect; inconclusive = small, poorly fitted or top-dose-only effect; inactive = flat fitted curve, though single readings scatter.
endpoint: outcome

CC(C)NC(C)Cc1ccc(I)cc1 (configuration not stated)    inactive
C[C@@H](N)Cc1cnc[nH]1    inactive
C[C@]12CCC3C(CC[C@H]4C[C@H](O)CC[C@]34C)C1CC[C@@H]2C(=O)CO (some centres not stated)    inactive
COc1cc(C(O)CN)ccc1O (configuration not stated)    inactive
CCCN(CCC)[C@@H]1CCc2ccc(O)cc2C1    inactive
Cn1cnc(CCN)c1    inactive
C=CCN1CC[C@]23CCCCC2[C@H]1Cc1ccc(O)cc13 (some centres not stated)    inactive
Cc1nccc2c1[nH]c1ccccc12    inactive
COC(=O)[C@@H](N)CCCN=C(N)N[N+](=O)[O-]    inactive
Oc1ccc2c3c1O[C@H]1c4[nH]c5c(c4C[C@@]4(O)[C@@H](C2)N(CC2CC2)CC[C@]314)C[C@@]1(O)[C@H]2Cc3ccc(O)c4c3[C@@]1(CCN2CC1CC1)[C@H]5O4    inactive
CN[C@@H]1C[C@@H](c2ccc(Cl)c(Cl)c2)c2ccccc21    inactive
NC1CCc2cc(O)c(O)cc2C1 (configuration not stated)    inactive

---

- procedure.text: Confirmatory qHTS for VERO E6 Cytotoxicity Assay: Counterscreen for SARS-CoV-2 CPE Assay (AID 1508605); note: nearly all actives have a fitted effect of over 60% in size
- experimental.context: cell viability luminescence; series mostly up to 20 µM
Inconclusive results are not listed. Calls of active or inactive are those of the source. Calls come from the whole dose curve.
Labels: yes for active, no for inactive

O=C(c1ccc(Nc2nccc(-c3cc4ccccc4s3)n2)cc1)N1CCC(N2CCCC2)CC1    yes
Nc1ccc(C(=O)c2cc3c(ccc4ccccc43)[nH]2)cc1    yes
CCCCCCCc1ccc(CCc2cccc(O)c2C(=O)O)cc1    no
CC(C)[C@H]1C(=O)N[C@H](CO)Cc2c[nH]c3cccc(c23)N1C    no
COc1cccc2c1CCCC2CCCN1CCN(C2CCCCC2)CC1 (stereo not given)    no

---

- subject.of.test: Muscarinic acetylcholine receptor M1 (Rattus norvegicus) (UniProt P08482)
- Sequence (P08482 whole entry, looked up): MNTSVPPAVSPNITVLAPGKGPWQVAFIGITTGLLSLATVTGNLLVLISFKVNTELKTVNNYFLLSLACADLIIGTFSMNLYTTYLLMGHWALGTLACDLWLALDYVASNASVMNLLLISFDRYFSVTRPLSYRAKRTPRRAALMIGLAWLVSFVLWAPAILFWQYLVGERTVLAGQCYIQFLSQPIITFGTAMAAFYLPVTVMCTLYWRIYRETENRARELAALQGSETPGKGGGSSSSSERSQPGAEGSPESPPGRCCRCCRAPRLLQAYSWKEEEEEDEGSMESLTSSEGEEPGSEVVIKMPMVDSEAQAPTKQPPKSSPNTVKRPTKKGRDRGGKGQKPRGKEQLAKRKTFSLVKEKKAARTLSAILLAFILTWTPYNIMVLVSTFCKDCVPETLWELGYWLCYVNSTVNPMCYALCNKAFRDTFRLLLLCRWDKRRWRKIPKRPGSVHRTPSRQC
- procedure.text: qHTS Assay for Antagonists of Acetylcholine Muscarinic M1 Receptor: Measurement of IP-One Response (AID 944); note: nearly all actives have a fitted effect of over 75% in size
- experimental.context: CHO-M1 cells, IP-One HTRF, antagonist mode; series mostly up to 46.1 µM
Inconclusive results are not listed. Active and inactive are the calls of the source. Calls follow the shape of the dose curve; as a rule, active = well fitted inhibition curve with a large enough effect; inconclusive = small, poorly fitted or top-dose-only effect; inactive = no such curve, though single readings can be large or run the other way.
Labels: active, inactive

COc1ccc2c(c[n+](C)c3c4cc5c(cc4ccc23)OCO5)c1OC    active
CNCCc1c[nH]c2ccc(O)cc12    inactive
CC1=NN=C(c2ccc(N)cc2)c2cc3c(cc2C1)OCO3    inactive
C#CCOC(=O)C1=CCCN(C)C1    inactive
Clc1cnc(Oc2ccc(Oc3ncc(Cl)cc3Cl)cc2)c(Cl)c1    inactive
c1ccc(CCCN2CCN(CCOC(c3ccccc3)c3ccccc3)CC2)cc1    active
O=C1CCCN1CC#CCN1CCCC1    inactive
Cn1cnc(CCN)c1    inactive
CCCCc1ccc(C(=O)O)nc1    inactive
CN[C@@H]1C[C@@H](c2ccc(Cl)c(Cl)c2)c2ccccc21    inactive
NC(=NCCC[C@H](N)C(=O)O)N[N+](=O)[O-]    inactive
c1ccc2sc(C3(N4CCCCC4)CCCCC3)cc2c1    inactive
Cc1nccc2c1[nH]c1ccccc12    inactive
